The values you see were collected from patent US20240239802A1.

# measurement_description: Pharmacokinetics (oral) in SD rats
# Assay type: in vivo
# measurement_conditions: rat, plasma, SD rats, 1.9 mg/kg (Reference Example) / 1.8 mg/kg (Compound of Formula (I))
measurement_kind: AUC(0-inf) (µM·h)
Give the value, in units of µM·h, as a plain number.

Enquiry: Entry O=C(c1ccc(Oc2ccccc2)cc1Cl)c1c[nH]c2ncnc(N[C@@H]3CC[C@@H](CO)OC3)c12 [Reference Example] has what AUC(0-inf)?
Return: 5.03

* * *

# measurement_description: Pharmacokinetics (intravenous) in CD-1 mice
# Format: in vivo
# measurement_conditions: mouse, plasma, 0.21 mg/kg, CD-1 male mice
# Protocol: The compound of formula (I) and the reference example were mixed with vehicle 0.10 mg/mL in 10% NMP/60% PEG400/30% H2O, vortexed and sonicated to prepare a 0.1 mg/mL clear solution. […] The whole blood was collected for a certain period of time to prepare plasma, and the drug concentration was analyzed by LC-MS/MS method. Pharmacokinetic parameters were calculated by Phoenix WinNonlin software (Pharsight, USA).
measurement_kind: Vd (L/kg)
Give the value, in units of L/kg, as a plain number.

Enquiry: Entry O=C(c1ccc(Oc2ccccc2)cc1Cl)c1c[nH]c2ncnc(N[C@@H]3CC[C@@H](CO)OC3)c12 [Reference Example] has what Vd?
Return: 0.7

* * *

# measurement_description: Pharmacokinetics (intravenous) in CD-1 mice
# Type: in vivo
# measurement_conditions: mouse, plasma, 0.21 mg/kg, CD-1 male mice
measurement_kind: clearance (mL/min/kg)
Give the value, in units of mL/min/kg, as a plain number.

Enquiry: Entry O=C(c1ccc(Oc2ccccc2)cc1Cl)c1c[nH]c2ncnc(N[C@@H]3CC[C@@H](CO)OC3)c12 [Reference Example] has what clearance?
Return: 2.01

* * *

# measurement_description: Pharmacokinetics (intravenous) in SD rats
# Assay type: in vivo
# measurement_conditions: rat, plasma, SD rats, 0.51 mg/kg (Reference Example) / 0.49 mg/kg (Compound of Formula (I))
measurement_kind: Vd (L/kg)
Give the value, in units of L/kg, as a plain number.

Enquiry: Entry O=C(c1ccc(Oc2ccccc2)cc1Cl)c1c[nH]c2ncnc(N[C@@H]3CC[C@@H](CO)OC3)c12 [Reference Example] has what Vd?
Return: 1.57

* * *

# measurement_description: Pharmacokinetics (intravenous) in SD rats
# Assay type: in vivo
# measurement_conditions: rat, plasma, SD rats, 0.51 mg/kg (Reference Example) / 0.49 mg/kg (Compound of Formula (I))
measurement_kind: clearance
Field: value (include unit after the number)

Enquiry: Entry O=C(c1ccc(Oc2ccccc2)cc1Cl)c1c[nH]c2ncnc(N[C@@H]3CC[C@@H](CO)OC3)c12 [Reference Example] has what clearance?
Return: 9.08 mL/min/kg

* * *

# measurement_description: Pharmacokinetics (intravenous) in CD-1 mice
# Format: in vivo
# measurement_conditions: mouse, plasma, 0.21 mg/kg, CD-1 male mice
measurement_kind: half-life (min)
Give the value, in units of min, as a plain number.

Enquiry: Entry O=C(c1ccc(Oc2ccccc2)cc1Cl)c1c[nH]c2ncnc(N[C@@H]3CC[C@@H](CO)OC3)c12 [Reference Example] has what half-life?
Return: 260

* * *

# measurement_description: Pharmacokinetics (oral) in SD rats
# Format: in vivo
# measurement_conditions: rat, plasma, SD rats, 1.9 mg/kg (Reference Example) / 1.8 mg/kg (Compound of Formula (I))
measurement_kind: half-life (h)
Give the value, in units of h, as a plain number.

Enquiry: Entry O=C(c1ccc(Oc2ccccc2)cc1Cl)c1c[nH]c2ncnc(N[C@@H]3CC[C@@H](CO)OC3)c12 [Reference Example] has what half-life?
Return: 2.41
